TARGET SYSTEM: Tip60 (Homo sapiens)
Sequence (Q92993 whole entry): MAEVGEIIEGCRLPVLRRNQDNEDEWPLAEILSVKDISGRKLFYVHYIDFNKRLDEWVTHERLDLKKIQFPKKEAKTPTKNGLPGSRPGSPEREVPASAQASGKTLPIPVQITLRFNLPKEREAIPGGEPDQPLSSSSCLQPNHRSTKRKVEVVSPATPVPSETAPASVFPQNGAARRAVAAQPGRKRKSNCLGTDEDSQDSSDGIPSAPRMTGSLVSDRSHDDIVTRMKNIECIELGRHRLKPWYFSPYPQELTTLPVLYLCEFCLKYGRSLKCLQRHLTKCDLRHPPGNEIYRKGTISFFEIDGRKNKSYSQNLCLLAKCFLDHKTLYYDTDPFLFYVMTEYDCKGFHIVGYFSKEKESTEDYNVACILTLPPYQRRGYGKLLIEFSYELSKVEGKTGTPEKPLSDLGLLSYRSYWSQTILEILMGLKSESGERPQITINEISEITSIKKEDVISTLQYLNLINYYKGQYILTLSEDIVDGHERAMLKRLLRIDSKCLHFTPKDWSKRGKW
MEASUREMENT DESCRIPTION: acetyltransferase activity assay (Enzo Life Sciences), Tip60
SETTINGS: histone 3 acetyl acceptor, acetyl-CoA, room temperature
ASSAY READOUT: EC50

Ask: Report EC50 for CCOc1cccc(OCCN(C)C)c1C(=O)Nc1ccc(Cl)c(C(F)(F)F)c1 please.
Result: > 200 µM

* * *

TARGET SYSTEM: CBP (Homo sapiens, UniProt Q92793)
Construct: the catalytic domain of human CBP, PCAF, p300 and GCN5 (Enzo Life Sci., USA) can be used; purchased Enzo Life Sciences
Sequence (Q92793 1323-1700 limits assumed): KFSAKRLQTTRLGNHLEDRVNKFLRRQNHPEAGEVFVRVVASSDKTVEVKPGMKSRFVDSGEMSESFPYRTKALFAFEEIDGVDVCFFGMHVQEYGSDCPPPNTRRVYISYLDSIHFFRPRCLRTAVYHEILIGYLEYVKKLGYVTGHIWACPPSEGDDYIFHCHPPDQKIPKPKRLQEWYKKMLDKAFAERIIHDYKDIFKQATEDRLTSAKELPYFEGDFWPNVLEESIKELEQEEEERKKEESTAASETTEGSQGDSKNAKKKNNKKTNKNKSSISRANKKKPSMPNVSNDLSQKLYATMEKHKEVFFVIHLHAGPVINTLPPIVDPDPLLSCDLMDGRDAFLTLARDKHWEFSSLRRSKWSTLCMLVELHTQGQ
MEASUREMENT DESCRIPTION: acetyltransferase activity assay (Enzo Life Sciences), CBP
Assay type: biochemical
SETTINGS: initial screening
ASSAY READOUT: effect on CBP, initial screening (FIG. 13)

Worked examples, 4 compounds total:
- COMPOUND: "CCOc1cccc(OCCN(C)C)c1/C=N/c1ccc(Cl)c(C(F)(F)F)c1 [Compound 17]"
  ASSAY RESULT: "activated only CBP"
- COMPOUND: "CCOc1cccc(OCCN2CCN(C)CC2)c1C(=O)Nc1ccc(Cl)c(C(F)(F)F)c1 [Compound 11]"
  ASSAY RESULT: "no effect"
- COMPOUND: "CCOc1cccc(OCCN2CCNCC2)c1C(=O)Nc1ccc(Cl)c(C(F)(F)F)c1 [Compound 10]"
  ASSAY RESULT: "no effect"
- COMPOUND: "CCOc1cccc(O)c1CNc1ccc(Cl)c(C(F)(F)F)c1 [Compound 26]"
  ASSAY RESULT: "activated only CBP"

// for each compound below, give its effect on CBP, initial screening (FIG. 13)
1. CCOc1cccc(OCCN(C)C)c1C(=O)NCc1ccc(Cl)c(C(F)(F)F)c1 [Compound 16]
2. CCOc1cccc(O)c1C(=O)Nc1ccc(Cl)c(C(F)(F)F)c1 [Compound 25]
3. CCOc1ccc(OCCN(C)C)c(C(=O)Nc2ccc(Cl)c(C(F)(F)F)c2)c1 [Compound 18]

Result:
activated only CBP
activated only CBP
activated only CBP

Origin of measurements: patent US9969677B2
